- method_notes: CCTE_Shafer_MEA_acute_per_network_burst_spike_number_std: CCTE's Neural Acute Assay for Standard Deviation of Number of Spikes in a Network Burst, Shafer Lab (AID 2284020);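 further: fitted for decrease in spike-number SD versus DMSO so actives lower it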
Activity calls are given as the source filed them. How the source made its calls: active means hit-call score of the fitted dose curve at least 0.9, where 1 is the maximum; inactive means score below 0.9.
Outcomes: active, inactive

{"columns": ["molecule", "class_label"],
 "data": [
  ["CC(C)(C)c1cc(O)c(C(C)(C)C)cc1O", "active"],
  ["C[Si]1(C)O[Si](C)(C)O[Si](C)(C)O[Si](C)(C)O1", "inactive"],
  ["CCCCCCCCCCO", "inactive"],
  ["CNCc1cc(F)ccc1Oc1ccc(Cl)c(Cl)c1", "active"],
  ["Nc1ccc2c(c1)C(=O)c1ccccc1C2=O", "inactive"],
  ["Cc1ccc2ncccc2c1", "inactive"],
  ["CC(=O)C(C)=CC1C(C)=CCCC1(C)C (stereo not given)", "inactive"],
  ["Cc1ccc(C(C)C)c(O)c1", "inactive"],
  ["FC(F)(F)C(F)(F)C(F)(F)C(F)(F)C(F)(F)C(F)(F)CCI", "inactive"],
  ["CCCc1cc(=O)[nH]c(=S)[nH]1", "inactive"]
]}

====

- method_notes: BSK_KF3CT_SRB: Viability Assessment in the BioMAP Diversity Plus: KF3CT Assay (AID 2283069);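 further: total protein by sulforhodamine B staining as a cytotoxicity measure; read 24 h after compound addition; fitted for both signal gain and loss against DMSO baseline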
- measurement_conditions: primary human keratinocytes with fibroblasts
Calls of active or inactive are those of the source. The calls were made as follows: active = hit-call score of the fitted dose curve at least 0.9, where 1 is the maximum; inactive = score below 0.9.
Outcomes: label 1 = active, label 0 = inactive

{"columns": ["compound", "class_label"],
 "data": [
  ["Nc1ccc2c(c1)C(=O)c1ccccc1C2=O", "label 0"],
  ["CCCCCC(=O)O", "label 0"],
  ["CCCCOC(=O)CCCCCCCCC(=O)OCCCC", "label 0"],
  ["Cc1ccc(C(C)C)c(O)c1", "label 0"],
  ["FC(F)(F)C(F)(F)C(F)(F)C(F)(F)C(F)(F)C(F)(F)CCI", "label 0"],
  ["C=CCOC(=O)c1ccccc1C(=O)OCC=C", "label 0"],
  ["Cc1cccc(Nc2cc(Cl)nc(SCC(=O)O)n2)c1C", "label 0"],
  ["CCCCCCCCCCC", "label 0"],
  ["Cc1cc(NC(=O)C(=O)O)cc(C)c1Oc1ccc(O)c2c1CCC2", "label 0"],
  ["CCCCCCCCCCCCCCCCCC(=O)O", "label 0"],
  ["COc1ccc(S(=O)(=O)N2C(=O)[C@@](c3ccccc3OC)(N3C[C@H](O)C[C@H]3C(=O)N(C)C)c3cc(Cl)ccc32)c(OC)c1", "label 0"],
  ["OC[C@@H](O)[C@@H](O)[C@H](O)[C@H](O)CO", "label 0"],
  ["CNCc1cc(F)ccc1Oc1ccc(Cl)c(Cl)c1", "label 0"],
  ["CCCCN(CCCC)CCCC", "label 0"],
  ["C1CCC(SSC2CCCCC2)CC1", "label 0"],
  ["Nc1ccc(S(=O)(=O)c2ccc(N)cc2)cc1", "label 0"],
  ["CC(=O)C(C)=CC1C(C)=CCCC1(C)C (centres undefined)", "label 0"],
  ["Cc1ccc(Cl)cc1", "label 0"],
  ["CCCCCCOCCO", "label 0"],
  ["CCCCCCCCCCCCCO", "label 1"],
  ["CCCCc1ccc2c(n1)[C@@H](c1ccc(OC)cc1C[C@H](C)C(=O)O)[C@H](C(=O)O)[C@H]2c1ccc2c(c1)OCO2", "label 0"],
  ["COC(=O)c1ccc(O)cc1", "label 0"],
  ["CCCCCCCCCCCC(=O)OC", "label 0"],
  ["NCCO", "label 0"],
  ["CCCCCCCCCCCCCCCC", "label 0"],
  ["Oc1ccc2c(c1)OC[C@@H](N1CCC(O)(c3ccc(F)cc3)CC1)[C@H]2O", "label 0"],
  ["CC(=O)OC/C=C(\\C)CCC=C(C)C", "label 0"],
  ["C[Si]1(C)O[Si](C)(C)O[Si](C)(C)O[Si](C)(C)O1", "label 0"],
  ["Cc1c(C(=O)O)c(O)cc2c1C(=O)c1c(O)c([C@@H]3O[C@H](CO)[C@@H](O)[C@H](O)[C@H]3O)c(O)c(O)c1C2=O", "label 0"],
  ["Clc1cc(Cl)c(Cl)cc1Cl", "label 0"],
  ["NC(=O)Cn1c(=O)cc(CCN2CCN(c3nccc4sccc34)CC2)c2ccc(F)cc21", "label 0"],
  ["Cc1cccc([N+](=O)[O-])c1C", "label 0"],
  ["CC(C)c1ccc(C(=O)N=C(N)N)cc1S(C)(=O)=O", "label 0"],
  ["CN1CCCC1=O", "label 0"],
  ["CC(=O)Oc1ccccc1C(=O)O", "label 0"],
  ["CC1(C)CC(N=C=O)CC(C)(CN=C=O)C1 (centres undefined)", "label 0"],
  ["CCOC(=O)C(C)(C)Oc1ccc(Cl)cc1", "label 0"],
  ["NCC1(Cc2noc(=O)[nH]2)CCCCC1", "label 0"],
  ["CCCCCCCC=O", "label 0"],
  ["O=C(O)Cc1ccccc1Nc1c(Cl)cccc1Cl", "label 0"],
  ["Cc1ccc(N(C)C)cc1", "label 0"],
  ["O=C(O)CCCCC(=O)O", "label 0"],
  ["COc1cc(C=O)ccc1O", "label 0"],
  ["CC=Cc1ccc(O)c(OC)c1", "label 0"],
  ["CCCCCCC(=O)OCC", "label 0"],
  ["CC1(C)NC(=O)NC1=O", "label 0"],
  ["Nc1nc(N)c2nc(CNc3ccc(C(=O)N[C@@H](CCC(=O)O)C(=O)O)cc3)cnc2n1", "label 0"],
  ["CN[C@H]1CC[C@@H](c2ccc(Cl)c(Cl)c2)c2ccc(S(N)(=O)=O)cc21", "label 1"],
  ["COc1cc(S(=O)(=O)O)c(C)cc1N=Nc1c(O)ccc2cc(S(=O)(=O)O)ccc12", "label 0"]
]}
